System: COLO 205 colon
ASSAY_PROTOCOL: NCI-60 one-dose screen, 48 h (100 = growth as untreated, 0 = no growth, -100 = all killed)
MEASUREMENT_CONTEXT: 10 µM unless noted
The panel holds about 83,000 compounds, 20% with a hit somewhere; the sample as a whole holds those more often.
RESULT_TYPE: growth (%)

compound=O=c1oc2ccc(F)cc2c(=O)n1-c1ccc(F)cc1F measurement_unit=% meas_value=93.9
compound="Cc1ccc(S(=O)c2ccc([N+](=O)[O-])c3nonc23)cc1 (stereo unspecified)" measurement_unit=% meas_value=-39.7
compound=O=c1oc2ccc(F)cc2c(=O)n1-c1ccc(Br)cc1F measurement_unit=% meas_value=27.7
compound=COc1ccc(/C=C/C(=O)c2ccc3cc(OC)c(OC)cc3c2)cc1OC measurement_unit=% meas_value=25.9
compound=FC(F)(F)c1cccc(CNC2CCN(CCc3ccccc3)CC2)c1 measurement_unit=% meas_value=76.2
compound="CN1C(=O)N(C)C2(c3ccccc3)n3c(s/c(=C\\c4ccccc4)c3=O)=NNC12c1ccccc1 (stereo unspecified)" measurement_unit=% meas_value=112

* * *

System: COLO 205 colon
ASSAY_PROTOCOL: NCI-60 one-dose screen, 48 h (100 = growth as untreated, 0 = no growth, -100 = all killed)
MEASUREMENT_CONTEXT: 10 µM unless noted
The panel holds about 83,000 compounds, 20% with a hit somewhere; the sample as a whole holds those more often.
RESULT_TYPE: growth (%)

molecule="CC(C)CCNCC(O)Cn1c2ccccc2c2ccccc21 (centres undefined)" measurement_unit=% meas_value=2.79
molecule=O=C1NC(=S)NC(=O)C1=Cc1cn(Cc2cn(Cc3cccc4ccccc34)nn2)c2ccccc12 measurement_unit=% meas_value=114
molecule=O=C(Nc1ccc(C23CC4CC(CC(c5ccccc5)(C4)C2)C3)cc1)c1cccs1 measurement_unit=% meas_value=91.4
molecule=N#C/C(=C\c1c(-c2ccccc2)[nH]c2ccccc12)S(=O)(=O)c1ccccc1 measurement_unit=% meas_value=12.8
molecule="CSc1nc2c(c(=O)[nH]1)N=C1c3ccccc3C(=O)C1C(c1ccc(F)cc1)N2 (centres undefined)" measurement_unit=% meas_value=53.4
molecule="COc1ccc(C2Nc3nc(OC)n(C)c(=O)c3N=C3c4ccccc4C(=O)C32)cc1 (centres undefined)" measurement_unit=% meas_value=104
molecule=Cc1c(-c2noc(-c3ccc([N+](=O)[O-])cc3)n2)no[n+]1[O-] measurement_unit=% meas_value=113
molecule="CCOc1cc(Cl)c(C(C)NC(=O)c2cccc(OC)c2)cc1OCC (centres undefined)" measurement_unit=% meas_value=-84.8
molecule="CCOC(=O)C1=C(C)N=c2s/c(=C\\c3ccccc3O)c(=O)n2C1c1ccc(OC)c2ccccc12 (centres undefined)" measurement_unit=% meas_value=-90
molecule=CC1=C(C(=O)OCC2CCN(C(=O)OC(C)(C)C)CC2)[C@H](c2cccc(Br)c2)C2=C(CC(C)(C)CC2=O)N1 measurement_unit=% meas_value=27.4
molecule=COc1cc2cc3c(=O)n4c(cc5cc(OC)ncc54)c(=O)n3c2cn1 measurement_unit=% meas_value=114
molecule=O=C1/C=C/[C@@H](O)[C@@H]2C[C@@H](O)C[C@H]2/C=C/CCCCO1 measurement_unit=% meas_value=-49.7
molecule=COc1ccc(Cn2cc(Cn3cc(C=C4C(=O)NC(=O)NC4=O)c4ccccc43)nn2)cc1 measurement_unit=% meas_value=108
molecule=COc1cc(NC(=O)CCSc2nc3ccccc3c(=O)n2CCc2ccccn2)cc(OC)c1OC measurement_unit=% meas_value=115
molecule=COc1ccc(Nc2cc(C)nc(NCc3ccccc3)n2)cc1 measurement_unit=% meas_value=3.51
molecule=O=c1oc2ccc(Cl)cc2c(=O)n1-c1ccc(I)cc1F measurement_unit=% meas_value=53
molecule=CCn1c(-c2nonc2Nc2ccc(OC)cc2)nc2ccccc21 measurement_unit=% meas_value=124
molecule=CCOC(=O)c1sc(-c2ccc(OS(=O)(=O)c3cccs3)c(C=O)c2)nc1C measurement_unit=% meas_value=79.6
molecule=Cc1ccc(CN2CCC(C(=O)Nc3ccc(-c4cc5ccccc5[nH]4)cc3)CC2)o1 measurement_unit=% meas_value=83.4

* * *

System: HT29 colon
ASSAY_PROTOCOL: NCI-60 one-dose screen, 48 h (100 = growth as untreated, 0 = no growth, -100 = all killed)
MEASUREMENT_CONTEXT: 10 µM unless noted
The panel holds about 83,000 compounds, 20% with a hit somewhere; the sample as a whole holds those more often. Active and inactive are the calls of the source. How the source made its calls: active means growth percent below 10; inactive means the rest.
RESULT_TYPE: growth

compound=CNCCNc1nc2ccccc2c2c(=O)c3cccc(C)c3sc12 target_or_test_system="HT29 colon" result_type=growth meas_value="-25.6% (active)"
compound="O=C(NN1C(=O)CSC1c1ccc(Cl)cc1)c1[nH]c2ccc(F)cc2c1-c1ccccc1 (stereo not given)" target_or_test_system="HT29 colon" result_type=growth meas_value="19.2% (inactive)"
compound="COc1nc2c(c(=O)n1C)N=C1c3ccccc3C(=O)C1C(c1ccccc1)N2 (stereo not given)" target_or_test_system="HT29 colon" result_type=growth meas_value="104% (inactive)"
compound="COc1ccc(C2Nc3ncnc(N)c3N=C3c4ccccc4C(=O)C32)cc1 (stereo not given)" target_or_test_system="HT29 colon" result_type=growth meas_value="98.2% (inactive)"
compound=Cn1cc(-c2ccc3ncc(-c4ccc(CC(=O)Nc5cc(C(C)(C)C)no5)cc4)nc3c2)cn1 target_or_test_system="HT29 colon" result_type=growth meas_value="51.6% (inactive)"
compound=CCOC(=O)c1ccc(N=Cc2sc(=O)[nH]c2O)cc1 target_or_test_system="HT29 colon" result_type=growth meas_value="104% (inactive)"
compound=O=C(O)c1cn(C2CC2)c2cc(N3CCN(C(=O)C[n+]4ccccc4)CC3)c(F)cc2c1=O target_or_test_system="HT29 colon" result_type=growth meas_value="109% (inactive)"
compound=CCCCN1CCN(c2ccc3nc(-c4ccc5nc(-c6ccc(OCC)cc6)[nH]c5c4)[nH]c3c2)CC1 target_or_test_system="HT29 colon" result_type=growth meas_value="21.4% (inactive)"
compound=CCOC(=O)C1(C(=O)OCC)N=C(c2ccccc2)C=C1c1ccccc1 target_or_test_system="HT29 colon" result_type=growth meas_value="76.2% (inactive)"
compound=CNCCNc1nc2ccccc2c2c(=O)c3cccc(OC)c3sc12 target_or_test_system="HT29 colon" result_type=growth meas_value="-17.5% (active)"

* * *

Tested on: UO-31 renal
ASSAY_PROTOCOL: NCI-60 one-dose screen, 48 h (100 = growth as untreated, 0 = no growth, -100 = all killed)
MEASUREMENT_CONTEXT: 10 µM unless noted
This is part of a sample that, as a whole, favours compounds with a hit. Of some 83,000 tested, about 20% had one in any assay.
RESULT_TYPE: growth (%)

compound="COc1ccc(C2Nc3ncnc(N)c3N=C3c4ccccc4C(=O)C32)cc1 (stereo not drawn)" result_type=growth meas_value=67
compound=CC/C=C\C[C@H](O)C/C=C1/C(=O)C=C[C@@H]1C/C=C\CCCC(=O)OCCS(=O)(=O)c1ccccc1 result_type=growth meas_value=70.4
compound=Cc1nc2ccccc2c(/C=C/c2ccc(F)cc2)c1C(N)=O result_type=growth meas_value=80.9
compound=CN1CCN(Cc2ccc(NC(=O)c3[nH]ncc3Nc3cc(OC4CCCC4)ncn3)cc2)CC1 result_type=growth meas_value=25.8
compound=Nc1ccccc1-c1ccc(-c2ccc(Cl)cc2)c2c1[nH]c1ccccc12 result_type=growth meas_value=26.1
compound="OC(CNC1CCCCC1)Cn1c2ccc(I)cc2c2cc(I)ccc21 (stereo not drawn)" result_type=growth meas_value=47.7
compound=CC[C@]1(O)C[C@@H]2CN(CCc3c([nH]c4ccccc34)[C@@](C(=O)OC)(c3cc4c(cc3OC)N(C)[C@H]3[C@@](O)(C(=O)OC)[C@H](OC(C)=O)[C@]5(CC)C=CCN6CC[C@]43[C@@H]65)C2)C1 result_type=growth meas_value=41.6
compound="NC1C(N)C(N)C1N (stereo not drawn)" result_type=growth meas_value=77.9
compound=O=C(CCc1nnc2sc(-c3ccc(Cl)cc3Cl)nn12)c1nc2ncccc2[nH]1 result_type=growth meas_value=-82
compound=O=C1/C(=C\c2ccc[nH]2)c2ccccc2N1c1ccccc1 result_type=growth meas_value=93.2
compound=N#C/C(=C\c1c(-c2ccccc2)[nH]c2ccccc12)C(=O)c1ccccc1 result_type=growth meas_value=37.5
compound=CC(=O)Nc1nc2c(s1)CCc1c-2cn(S(=O)(=O)c2ccccc2)c1-c1ccccc1 result_type=growth meas_value=41.2
compound="O=C(NCc1ccco1)C1CN(c2ccc(Cl)cc2)N(c2ccc(Cl)cc2)C1=O (stereo not drawn)" result_type=growth meas_value=42.7
compound=COc1ccc(/C=C2/SC(=O)N(CC(=O)N3CCN(c4cc5c(cc4F)c(=O)c(C(=O)O)cn5C4CC4)CC3)C2=O)cc1 result_type=growth meas_value=81.8
compound=CCOC(=O)c1sc(-c2ccc(OS(=O)(=O)c3ccccc3[N+](=O)[O-])c(C=O)c2)nc1C result_type=growth meas_value=57.1
compound="C=CCN1C(=O)/C(=c2\\sc3n(c2=O)NC2C(N=3)N(CC)C(=O)N2CC)c2ccccc21 (stereo not drawn)" result_type=growth meas_value=56
compound=O=C(Nc1ccsc1C(=O)NC1CCCCC1)c1ccc(F)cc1 result_type=growth meas_value=94.4
compound=O=C(Nc1nc2c(s1)CCc1c-2c(Br)n(Cc2ccccc2)c1Br)c1ccccc1 result_type=growth meas_value=57.6
compound="CCN1C(=O)N(c2ccccc2)C2NN=c3s/c(=C4\\C(=O)N(C(C)C)c5ccccc54)c(=O)n3C21 (stereo not drawn)" result_type=growth meas_value=55.6
compound=O=C(Nc1ccc(Cl)cc1F)c1cc(I)ccc1O result_type=growth meas_value=34
compound=O=C(CN1C(=O)/C(=C\c2ccc(Cl)cc2)SC1=S)Nc1ncc(Cc2ccc(Cl)cc2)s1 result_type=growth meas_value=80.8
compound=O=c1cc(NC2CCN(CCCc3ccccc3)CC2)c2cc(Cl)ccc2o1 result_type=growth meas_value=-10.4
compound=COc1cc(/C=C/C(=O)c2c(C)nc3ccccc3c2/C=C/c2ccccc2)cc(OC)c1OC result_type=growth meas_value=27.4
compound=FC(F)(F)c1cccc(Nc2nc(-c3ccccc3)nc3ncccc23)c1 result_type=growth meas_value=82.4
compound=COc1cc(/C=C2\CN(C)C/C(=C\c3cc(CN4CCCCC4)c(O)c(OC)c3)C2=O)cc(CN2CCCCC2)c1O result_type=growth meas_value=57
compound="CCOc1cc2c(cc1OCC)C(c1cc(C)c(O)c(C)c1)NCC2 (stereo not drawn)" result_type=growth meas_value=73.4
compound=O=C(Nc1ccc(Cl)cc1)N1CCN(c2ccc3nncn3n2)CC1 result_type=growth meas_value=36.1
compound=COc1ccc2occ(C3=C(c4c[nH]c5ccccc45)C(=O)NC3=O)c2c1 result_type=growth meas_value=40.4
compound=COc1cc(/C=C/C(=O)c2ccc(Cl)cc2)cc(CN2CCCCC2)c1O result_type=growth meas_value=58.5
compound=CC[C@]1(O)C[C@@H]2CN(CCc3c([nH]c4ccccc34)[C@@](C(=O)OC)(c3cc4c(cc3OC)N(C)[C@H]3[C@@](O)(C(=O)OC)[C@H](OC(=O)CCCBr)[C@]5(CC)C=CCN6CC[C@]43[C@@H]65)C2)C1 result_type=growth meas_value=37.7
compound=O=C1NC(=O)C(=Cc2cn(Cc3cn(Cc4ccc(Cl)cc4Cl)nn3)c3ccccc23)C(=O)N1 result_type=growth meas_value=63.9
compound=CCOc1ccccc1CN1CCc2nc3cc(C(C)(C)C)[nH]n3c(=O)c2C1 result_type=growth meas_value=93.4
compound=Cc1ccc(Cn2c(N3CCC(C(=O)NCc4cccs4)CC3)nc3ccccc32)cc1 result_type=growth meas_value=65
compound=COc1ccc2oc(=O)cc(Cn3cc(Cn4cnc5c4c(=O)n(C)c(=O)n5C)nn3)c2c1 result_type=growth meas_value=83.3
compound=COc1cccc(/C=C/C(=O)c2c(C)nc3ccccc3c2/C=C/c2ccccc2)c1OC result_type=growth meas_value=48.8
compound=NC1(N2SC(S)=C3CCCC=C32)CCCCC1 result_type=growth meas_value=78.6
compound=COc1ccc(-c2cn[nH]c2-c2ccc(OC)c(O)c2)cc1 result_type=growth meas_value=85.1
compound=CCOC(=O)c1cc2c(n1Cc1cc(OC)cc(OC)c1)-c1oncc1CCC2 result_type=growth meas_value=18.5
